Recorded values, source patent US10285983B2.

- Test system: Wnt activity (Sp5-Luc reporter, SW480 colon carcinoma cells)
- PROTOCOL: Wnt activity screening assay, Sp5-Luc reporter gene in SW480 cells
- Assay type: cell-based
- CONDITION: Homo sapiens, overnight incubation
VALUE TYPE: EC50

[[record]]
compound = "CN(C)CCNc1cc(F)cc(-c2ccnc3[nH]c(-c4n[nH]c5ncc(-c6cncc(NC(=O)C7CCC7)c6)cc45)cc23)c1"
result = "> 10 µM"


// recorded EC50 for c1cncc(-c2ccnc3[nH]c(-c4n[nH]c5ncc(-c6cncc(CN7CCCCC7)c6)cc45)cc23)c1 : > 10 µM

// recorded EC50 for O=C(Nc1cncc(-c2cnc3[nH]nc(-c4cc5c(-c6ccc(F)cc6)ccnc5[nH]4)c3c2)c1)C1CCCCC1 : > 10 µM

// recorded EC50 for O=C(Nc1cncc(-c2cnc3[nH]nc(-c4cc5c(-c6ccncc6)ccnc5[nH]4)c3c2)c1)C1CCCCC1 : > 10 µM
